These entries and their values trace back to patent US20170079966A1.

TARGET_UNDER_TEST: UniProt Q02763
ASSAY_PROCEDURE: Phospho-TIE2 Western blot in TIE2 expressing CHO-K1 cells
Type: cell-based
Parameters: expressed in transfected cells; host or cells: CHO-K1 (ATCC CCL-61), transient transfection
TEST_SETTINGS: CHO cells transiently expressing TIE2; 4 hours; read-out: IC50, inhibiting the constitutive phosphorylation of TIE2
Sequence (Q02763 23-1124, species assumed): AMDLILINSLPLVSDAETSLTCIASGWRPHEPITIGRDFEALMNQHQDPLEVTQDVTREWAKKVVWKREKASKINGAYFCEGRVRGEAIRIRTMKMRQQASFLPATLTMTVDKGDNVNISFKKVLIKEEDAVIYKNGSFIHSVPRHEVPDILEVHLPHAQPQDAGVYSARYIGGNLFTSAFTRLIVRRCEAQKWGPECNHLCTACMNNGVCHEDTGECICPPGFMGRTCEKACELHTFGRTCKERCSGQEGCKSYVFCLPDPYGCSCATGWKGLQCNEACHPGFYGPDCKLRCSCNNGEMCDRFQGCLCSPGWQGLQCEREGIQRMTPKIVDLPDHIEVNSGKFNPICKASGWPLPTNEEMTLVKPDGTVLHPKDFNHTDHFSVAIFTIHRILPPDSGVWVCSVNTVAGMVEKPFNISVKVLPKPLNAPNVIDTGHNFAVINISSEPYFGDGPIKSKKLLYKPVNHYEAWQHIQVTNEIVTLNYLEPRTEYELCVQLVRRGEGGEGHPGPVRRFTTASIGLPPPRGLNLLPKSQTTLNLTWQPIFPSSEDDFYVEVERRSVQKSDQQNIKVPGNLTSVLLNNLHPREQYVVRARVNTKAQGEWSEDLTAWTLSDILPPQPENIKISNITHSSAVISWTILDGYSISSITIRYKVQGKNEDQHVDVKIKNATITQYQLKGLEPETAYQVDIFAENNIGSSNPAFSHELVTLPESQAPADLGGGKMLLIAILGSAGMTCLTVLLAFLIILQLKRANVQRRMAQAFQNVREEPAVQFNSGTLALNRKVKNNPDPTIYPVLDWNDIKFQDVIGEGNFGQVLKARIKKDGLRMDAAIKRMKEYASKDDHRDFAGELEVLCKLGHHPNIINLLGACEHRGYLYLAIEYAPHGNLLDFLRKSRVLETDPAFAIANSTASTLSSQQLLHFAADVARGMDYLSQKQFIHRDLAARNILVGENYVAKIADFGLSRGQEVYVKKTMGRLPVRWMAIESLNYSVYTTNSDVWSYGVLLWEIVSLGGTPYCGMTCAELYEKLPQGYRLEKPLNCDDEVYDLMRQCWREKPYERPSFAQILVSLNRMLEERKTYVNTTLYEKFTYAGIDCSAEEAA
pIC50: −log10 of the molar value.

COMPOUND | TARGET_UNDER_TEST | pIC50
O=C(Nc1cc(Oc2cc(F)c(NC(=O)C3(C(=O)Nc4ccc(F)cc4)CC3)cc2F)ccn1)C1CC1 [Compound 1] | UniProt Q02763 | 8.62

* * *

TARGET_UNDER_TEST: TIE2 (Homo sapiens, UniProt Q02763)
ASSAY_PROCEDURE: HUVEC Phospho-TIE2 Western Blot Assay
Type: cell-based
Set-up: host or cells: HUVEC
TEST_SETTINGS: 4 hours compound; 800 ng/mL ANG1 complex 15 minutes; read-out: IC50, ANG1-stimulated phospho-TIE2 in HUVECs
Sequence (Q02763 23-1124): as the sequence (Q02763 23-1124, species assumed) above
pIC50: −log10 of the molar value.

MOLECULE | pIC50
O=C(Nc1cc(Oc2cc(F)c(NC(=O)C3(C(=O)Nc4ccc(F)cc4)CC3)cc2F)ccn1)C1CC1 [Compound 1] | 9.00

* * *

TARGET_UNDER_TEST: uTIE2 kinase (Homo sapiens)
Sequence (Q02763 771-1124): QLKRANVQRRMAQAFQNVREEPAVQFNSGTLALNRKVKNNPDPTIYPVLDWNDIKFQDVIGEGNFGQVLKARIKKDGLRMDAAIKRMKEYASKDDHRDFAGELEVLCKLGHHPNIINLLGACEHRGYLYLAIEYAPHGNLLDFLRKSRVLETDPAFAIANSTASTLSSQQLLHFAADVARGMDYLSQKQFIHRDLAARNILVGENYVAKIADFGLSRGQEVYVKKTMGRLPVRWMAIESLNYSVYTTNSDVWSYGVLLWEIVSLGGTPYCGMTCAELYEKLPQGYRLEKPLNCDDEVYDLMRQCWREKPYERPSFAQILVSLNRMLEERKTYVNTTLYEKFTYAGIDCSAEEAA

STRUCTURE | TARGET_UNDER_TEST | UNITS | IC50
O=C(Nc1cc(Oc2cc(F)c(NC(=O)C3(C(=O)Nc4ccc(F)cc4)CC3)cc2F)ccn1)C1CC1 | uTIE2 kinase (Homo sapiens) | nM | 7.9

* * *

Test system: macrophage-mediated intravasation of human breast cancer cells (MDA-MB 231-GFP)
ASSAY_PROCEDURE: In vitro intravasation-directed transendothelial migration (iTEM) assay
Format: cell-based
TEST_SETTINGS: BAC1.2F5 macrophages, HUVEC monolayer
MEASURED_PROPERTY: IC50

MOLECULE | OBS_VALUE
O=C(Nc1cc(Oc2cc(F)c(NC(=O)C3(C(=O)Nc4ccc(F)cc4)CC3)cc2F)ccn1)C1CC1 [Compound 1] | < 10 nM
